For each record, write down the corresponding IC50.
study.target: human RORγ hybrids of both isoforms 1 and 2 (RORγt) (Homo sapiens)
assay.text: Human RAR-related Orphan Receptor Gamma Reporter Assay System (Indigo Biosciences)
Format: cell-based
# unit: nM | format: bare number

Field request: IC50 | item: COc1cc(C2C(C#N)=C(N)N(Nc3ccccc3)C3=C2C(=O)CC(C)(C)C3)ccc1OCc1ccccc1 (centres unmarked)
3200

# lookup: IC50 of COc1cc(C2C(C#N)=C(N)N(Nc3ccccc3)C3=C2C(=O)CC(C)(C)C3)ccc1OCc1cccc(F)c1 (centres unmarked)
2400

###

Task for the reader: assign each of the following compounds its reported IC50.
study.target: human RORγ hybrids of both isoforms 1 and 2 (RORγt) (Homo sapiens, UniProt P51449)
Sequence (P51449 259-518): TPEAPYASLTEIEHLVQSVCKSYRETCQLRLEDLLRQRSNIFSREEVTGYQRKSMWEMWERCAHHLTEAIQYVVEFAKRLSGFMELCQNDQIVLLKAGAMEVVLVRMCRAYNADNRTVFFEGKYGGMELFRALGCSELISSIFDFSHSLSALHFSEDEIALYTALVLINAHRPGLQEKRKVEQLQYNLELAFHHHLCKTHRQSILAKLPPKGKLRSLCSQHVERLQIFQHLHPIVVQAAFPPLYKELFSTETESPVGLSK
assay.text: Human RAR-related Orphan Receptor Gamma Reporter Assay System (Indigo Biosciences)
Assay type: cell-based
run.conditions: RORγ reporter assay, concentrations 10 µM to 8 nM; read-out: IC50
Your answer should be a plain number; it is taken to be in nM.

Name the reported IC50 value associated with the compound COc1ccc(-c2nc3ccccc3c(C(=O)Nc3ccc(S(=O)(=O)Nc4cc(C)on4)cc3)c2C)cc1 [Compound 19]
1100

Find the recorded IC50 belonging to COc1cc(C2C(C(=O)OC3CCCCC3)=C(C)NC3=C2C(=O)CC(c2ccc(OC)c(OC)c2)C3)ccc1O (stereo not drawn) [Compound 13] and report it.
2600

Would you kindly share the measured IC50 for Clc1ccccc1COc1cccc(/C=N/Nc2nc(N3CCOCC3)nc(N3CCOCC3)n2)c1 [Compound 9] ?
1700

Each recorded value in this set is attributed to paper PMC10145393.
